Source of measurements: patent US20260176249A1

Protocol notes: Metabolic stability in rat liver microsomes
Assay type: in vitro ADME
Condition details: pH 7.4, read-out: CLint(mic)

Item smiles: CN1CCN(c2ccc(OC(F)(F)F)c(Nc3ncc4ccc5c(C(=O)NO)nn(CCO)c5c4n3)c2)CC1
microsomal CLint at 1 µM, µL/min/mg: 70.8

====

Readings of microsomal CLint at 1 µM for the listed compounds
Protocol notes: Metabolic stability in human liver microsomes
Format: in vitro ADME
Condition details: human, pH 7.4, read-out: CLint(mic)
Readout: microsomal CLint at 1 µM (µL/min/mg)

Compound: CN1CCN(c2ccc(OC(F)(F)F)c(Nc3ncc4c(n3)-c3c(c(C(N)=O)cn3CCO)CC4)c2)CC1
Measurement: 25.2

Compound: Cn1nc(C(N)=O)c2c1-c1nc(Nc3cc(N4CCN(CCO)CC4)ccc3OC(F)(F)F)ncc1CC2
Measurement: 43.4

Compound: CN1CCN(c2ccc(OC(F)(F)F)c(Nc3ncc4c(n3)-c3c(c(C(N)=O)nn3CCC#N)CC4)c2)CC1
Measurement: 49

Compound: CN1CCN(c2ccc(OCC(F)(F)F)c(Nc3ncc4c(n3)-c3c(c(C(N)=O)nn3CCO)CC4)c2)CC1
Measurement: 31.8

Compound: CN1CCN(c2ccc(OC(F)(F)F)c(Nc3ncc4ccc5c(C(N)=O)nn(C)c5c4n3)c2)CC1
Measurement: 87.4

Compound: CN1CCN(c2ccc(OC(F)(F)F)c(Nc3ncc4ccc5c(C(N)=O)nn(CCF)c5c4n3)c2)CC1
Measurement: 87.4

Compound: CN1CCN(c2ccc(OC(F)(F)F)c(Nc3ncc4c(n3)-c3c(c(C(N)=O)nn3CCO)CC4)c2)CC1 [Onvansertib, reference compound]
Measurement: 17
